- systemName: wild type AXL (wtAXL) receptor tyrosine kinase (Homo sapiens, UniProt P30530)
- Construct: WtAXL cDNA was cloned into vector pLXSN(ESK) and transfected into Phoenix E packaging cells
- assayInfo: NIH-3T3-AXL cellular tyrosine kinase assay (inhibition of AXL phosphorylation)
- statedConditions: AXL phosphorylation in NIH-3T3-AXL (clone 22) cells, serum-depleted, 2 h with compound, immunoprecipitation / anti-phosphotyrosine blot
pIC50: −log10 of the molar value.
readoutKind: pIC50

Example cases with answers are listed next.
[
  {
    "compound": "Cc1cc(Oc2ccc(NS(=O)(=O)c3cc(Cl)cc(Cl)c3)c(F)c2)c2cccc(C(F)(F)F)c2n1 [Example C01]",
    "endpointResult": "< 5.00"
  },
  {
    "compound": "COC(=O)c1sccc1S(=O)(=O)Nc1ccc(Oc2cc(C)nc3ccc(F)cc23)cc1 [Example B17]",
    "endpointResult": "< 5.00"
  },
  {
    "compound": "COc1ccc(S(=O)(=O)Nc2ccc(Oc3cc(C)nc4c(C(F)(F)F)cccc34)c(F)c2)cc1F [Example C09]",
    "endpointResult": "< 5.00"
  },
  {
    "compound": "COc1cc2nccc(Oc3ccc(NS(=O)(=O)c4ccc5c(c4)CC(=O)N5C)cc3OC)c2cc1OC [Example A145]",
    "endpointResult": "< 5.00"
  },
  {
    "compound": "COc1cc2nccc(Oc3ccc(NS(=O)(=O)c4cc5ccccc5s4)c(C)c3)c2cc1OC [Example A94]",
    "endpointResult": "< 5.00"
  },
  {
    "compound": "COc1cc2nccc(Oc3ccc(NS(=O)(=O)c4cn(C)cn4)c(F)c3)c2cc1OC [Example A32]",
    "endpointResult": "< 5.00"
  },
  {
    "compound": "COc1cc2nccc(Oc3ccc(NS(=O)(=O)c4cc(Cl)c(C)cc4OC)cc3)c2cc1OC [Example A69]",
    "endpointResult": "< 5.00"
  },
  {
    "compound": "COc1cc2nccc(Oc3ccc(NS(=O)(=O)c4cccc(F)c4C)c(F)c3)c2cc1OC [Example A58]",
    "endpointResult": "< 6.00"
  },
  {
    "compound": "Cc1cc(Oc2ccc(NS(=O)(=O)c3ccccc3)cc2)c2cc(F)ccc2n1 [Example B9]",
    "endpointResult": "< 5.00"
  },
  {
    "compound": "COc1cc2nccc(Oc3ccc(NS(=O)(=O)c4cccc(Oc5ccccc5)c4)c(C)c3)c2cc1OC [Example A90]",
    "endpointResult": "< 5.00"
  }
]

I have 2 compounds here; please give me pIC50 for each one.
1. COc1cc2nccc(Oc3ccc(NS(=O)(=O)c4cc(C(F)(F)F)ccc4Br)c(F)c3)c2cc1OC [Example A46]
2. COc1cc2nccc(Oc3ccc(NS(=O)(=O)c4ccc(OC)c5ccccc45)c(F)c3)c2cc1OC [Example A63]

Reply text:
["< 5.00", "< 6.00"]

----------
- systemName: wild type AXL (wtAXL) receptor tyrosine kinase (Homo sapiens)
- Construct: WtAXL cDNA was cloned into vector pLXSN(ESK) and transfected into Phoenix E packaging cells
- Sequence (P30530 26-894): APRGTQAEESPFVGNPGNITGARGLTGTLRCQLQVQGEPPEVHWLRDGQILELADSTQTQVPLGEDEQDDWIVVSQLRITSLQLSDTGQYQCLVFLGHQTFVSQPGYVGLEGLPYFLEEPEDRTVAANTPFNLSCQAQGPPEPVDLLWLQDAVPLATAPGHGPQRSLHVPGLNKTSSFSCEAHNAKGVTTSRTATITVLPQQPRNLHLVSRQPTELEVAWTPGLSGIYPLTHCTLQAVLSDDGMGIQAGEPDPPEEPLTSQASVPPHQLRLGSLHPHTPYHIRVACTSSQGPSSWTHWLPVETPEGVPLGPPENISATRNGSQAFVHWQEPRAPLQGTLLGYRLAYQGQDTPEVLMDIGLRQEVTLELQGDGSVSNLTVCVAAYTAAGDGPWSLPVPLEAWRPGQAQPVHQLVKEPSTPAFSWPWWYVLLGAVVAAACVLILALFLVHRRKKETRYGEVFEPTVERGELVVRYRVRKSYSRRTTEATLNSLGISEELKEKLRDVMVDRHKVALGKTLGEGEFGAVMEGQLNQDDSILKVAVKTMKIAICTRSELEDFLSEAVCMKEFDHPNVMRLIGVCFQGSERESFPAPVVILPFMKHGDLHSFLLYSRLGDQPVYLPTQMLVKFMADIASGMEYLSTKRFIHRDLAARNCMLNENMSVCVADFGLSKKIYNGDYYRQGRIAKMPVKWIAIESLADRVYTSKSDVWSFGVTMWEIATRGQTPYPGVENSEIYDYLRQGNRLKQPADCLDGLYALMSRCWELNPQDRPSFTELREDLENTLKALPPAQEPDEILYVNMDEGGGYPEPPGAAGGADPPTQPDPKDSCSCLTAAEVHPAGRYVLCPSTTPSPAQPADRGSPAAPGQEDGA
- assayInfo: NIH-3T3-AXL cellular tyrosine kinase assay (inhibition of AXL phosphorylation)
- statedConditions: AXL phosphorylation in NIH-3T3-AXL (clone 22) cells, serum-depleted, 2 h with compound, immunoprecipitation / anti-phosphotyrosine blot
pIC50: −log10 of the molar value.
Hi there, I'd appreciate the recorded pIC50 for every entry that follows.

[
  {
    "molecule": "COc1cc2c(Oc3ccc(NS(=O)(=O)c4cccc(-c5ccccc5)c4)c(F)c3)ccnc2cc1OCc1ccccc1 [Example D01]",
    "endpointResult": "< 5.00"
  }
]

I have 2 molecules here; please give me pIC50 for each one.
1. COc1cc2nccc(Oc3ccc(NS(=O)(=O)c4ccccc4OC(F)(F)F)cc3OC)c2cc1OC [Example A119]
2. Cc1cc(Oc2ccc(NS(=O)(=O)c3c(F)cccc3F)c(F)c2)c2cc(F)ccc2n1 [Example B6]

Reply text:
1. < 5.52
2. < 5.00
